Subject of test: T1, EBV gp350 expressed on the surface of stably transfected CHO cells (Epstein-Barr virus, UniProt P03200 1-907)
T1 construct: also called native gp350; gp350 expressing CHO cells
T1 sequence: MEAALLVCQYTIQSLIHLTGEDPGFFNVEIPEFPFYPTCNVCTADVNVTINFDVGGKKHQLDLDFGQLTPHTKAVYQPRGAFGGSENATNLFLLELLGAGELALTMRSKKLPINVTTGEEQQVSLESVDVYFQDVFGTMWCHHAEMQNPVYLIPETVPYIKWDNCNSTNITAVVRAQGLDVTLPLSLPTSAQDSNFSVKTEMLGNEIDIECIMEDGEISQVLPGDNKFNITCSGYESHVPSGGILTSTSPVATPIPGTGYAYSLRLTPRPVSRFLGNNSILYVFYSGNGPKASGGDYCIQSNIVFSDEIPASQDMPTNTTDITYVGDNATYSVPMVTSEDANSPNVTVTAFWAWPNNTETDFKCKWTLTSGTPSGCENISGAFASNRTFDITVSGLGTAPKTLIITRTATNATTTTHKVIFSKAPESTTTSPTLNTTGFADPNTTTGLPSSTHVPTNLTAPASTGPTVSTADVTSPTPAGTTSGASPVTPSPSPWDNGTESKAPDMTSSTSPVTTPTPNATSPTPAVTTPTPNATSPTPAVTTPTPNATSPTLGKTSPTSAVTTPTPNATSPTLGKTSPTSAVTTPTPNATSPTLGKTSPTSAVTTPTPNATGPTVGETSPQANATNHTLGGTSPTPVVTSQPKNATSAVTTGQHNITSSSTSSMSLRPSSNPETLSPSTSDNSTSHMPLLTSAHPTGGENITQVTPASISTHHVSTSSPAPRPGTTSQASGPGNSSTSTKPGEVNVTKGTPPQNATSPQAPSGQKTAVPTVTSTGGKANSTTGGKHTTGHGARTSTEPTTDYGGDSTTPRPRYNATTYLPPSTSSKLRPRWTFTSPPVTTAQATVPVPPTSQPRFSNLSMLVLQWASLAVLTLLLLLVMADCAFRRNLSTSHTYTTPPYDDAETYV
Protocol summary: cell competition (flow), unlabeled 500 µg/ml; competitor: biotinylated m72A1 1 µg/ml
Recorded metric: % inhibition of biotinylated nAbs (%)
Your answer should be a plain number; it is taken to be in %.

Binder	Unit label	% inhibition of biotinylated nAbs
HB17 (antibody, V domains shown) VH: AELVIPGASVKVSCKASGYTFTSYWIHWVKQWPGQGLEWIGEINPNNGHTNYNEKFKSKATLTVDKSSSTAYMQLSSLTSEDSAVYYCARNLFYYSRPDYWGQGTSVTVSS VL: SSLSASLGDRVTISCRASQDIGNYLNWYQQKPDGTIKLLIYYTSRLHSGVPSRFSGSGSGTDYSLTISNLEEEDIATYFCQQGNTLPPTFGGGTKLEIKR	%	32

The record that follows has no % inhibition of biotinylated nAbs shown yet.
Answer with the recorded % inhibition of biotinylated nAbs of HB5 (antibody, V domains shown, also called mHB5) VH: AELVRPGASVKISCKAFGYTFTNHNINWVKQRPGQGLDWIGYINPYNDYTSYNQKFKGKATLTVDKSSNTAYMELSSLTSEDSAVYYCARSEGWLRRGAWFAYWGQGTLVTVSA VL: AILSVSPGERVSFSCRASQSIGTSIHWYQQRTNDSPRLLIKYASESISGIPPRFSGSGSGTDFTLSINSVESEDIADYHCQQSNSWPMLTFGAGTKLELKR only.
95
